Values from paper PMC6338644

Collected inhibition at 100 µM values appear next to each entry.
Biological target: His-tagged human SHIP1 phosphatase domain (Homo sapiens)
Construct: Recombinant His-tagged human SHIP2 and SHIP1 phosphatase domains were produced as previously described; His; made in house
Sequence (Q92835 399-715 limits assumed): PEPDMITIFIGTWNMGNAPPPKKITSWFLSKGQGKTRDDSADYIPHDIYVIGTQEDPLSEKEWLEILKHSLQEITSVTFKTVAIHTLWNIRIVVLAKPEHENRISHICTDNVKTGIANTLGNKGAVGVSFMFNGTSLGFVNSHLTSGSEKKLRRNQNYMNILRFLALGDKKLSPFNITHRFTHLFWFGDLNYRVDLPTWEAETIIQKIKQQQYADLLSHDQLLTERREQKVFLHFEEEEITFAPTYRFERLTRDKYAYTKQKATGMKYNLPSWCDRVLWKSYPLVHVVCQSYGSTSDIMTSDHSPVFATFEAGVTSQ
Test: Malachite green phosphate assay, recombinant SHIP1 phosphatase domain (High Throughput Biomedicine Unit)
Type: biochemical
Conditions: inhibitors at 100 µM concentration; read-out: SHIP1 Inhibition efficiency
Procedure: Recombinant His-tagged human SHIP2 and SHIP1 phosphatase domains were produced as previously described ([17]). […] The catalytic activities of the recombinant SHIP2 and SHIP1 phosphatase domains were determined by malachite green phosphate assay at the High Throughput Biomedicine Unit (University of Helsinki) using D-myo-PI(3,4,5)P3 (Echelon Biosciences, Salt Lake City, UT, USA). […] Absorbance was measured at 620 nm using a Pherastar FS plate reader (BMG Labtech, Offenburg, Germany). […]
Where a name gives a salt, the structure may show the parent alone.
parameterMeasured: inhibition at 100 µM

# compound, parameterMeasured, reportedResult
rows = [
    ("CC(=O)O[C@]1(C(C)=O)CC[C@H]2[C@@H]3C=C(C)C4=CC(=O)CC[C@]4(C)[C@H]3CC[C@@]21C [Megestrol acetate]", "inhibition at 100 µM", "30%"),
    ("Nc1nc2nc[nH]c2c(=S)[nH]1", "inhibition at 100 µM", "29.9%"),
    ("CN(C)C(=N)N=C(N)N [Metformin, 1,1-Dimethylbiguanide hydrochloride]", "inhibition at 100 µM", "11.1%"),
    ("Sc1ncnc2nc[nH]c12 [Mercaptopurine, 3,7-dihydropurine-6-thione]", "inhibition at 100 µM", "11.4%"),
]

* * *

The following compounds are shown together with reported inhibition at 100 µM values.
Molecular target: His-tagged human SHIP2 phosphatase domain (Homo sapiens, UniProt O15357)
Construct: we produced a His-tagged human SHIP2 phosphatase domain; His; made in house
Sequence (O15357 419-732 limits assumed): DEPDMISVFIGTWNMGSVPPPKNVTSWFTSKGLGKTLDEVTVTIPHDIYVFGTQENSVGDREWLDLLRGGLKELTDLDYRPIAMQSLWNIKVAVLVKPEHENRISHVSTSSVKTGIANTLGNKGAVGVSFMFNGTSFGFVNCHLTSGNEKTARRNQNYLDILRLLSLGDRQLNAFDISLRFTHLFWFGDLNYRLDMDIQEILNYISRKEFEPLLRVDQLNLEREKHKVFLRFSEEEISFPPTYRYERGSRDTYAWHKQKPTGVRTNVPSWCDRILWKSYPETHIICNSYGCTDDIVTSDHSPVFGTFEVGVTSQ
Test: Malachite green phosphate assay, recombinant SHIP2 phosphatase domain (High Throughput Biomedicine Unit, 384-well)
Assay type: biochemical
Details: inhibitors at 100 µM concentration; read-out: SHIP2 Inhibition efficiency
Where a name gives a salt, the structure may show the parent alone.
parameterMeasured: inhibition at 100 µM (%)

# compound, reportedResult
rows = [
    ("Nc1nc2nc[nH]c2c(=S)[nH]1 [Thioguanine, 2-Amino-1H-purine-6(7H)-thione]", 44.9),
    ("CC(=O)O[C@]1(C(C)=O)CC[C@H]2[C@@H]3C=C(C)C4=CC(=O)CC[C@]4(C)[C@H]3CC[C@@]21C [Megestrol acetate]", 76.6),
    ("Sc1ncnc2nc[nH]c12 [Mercaptopurine, 3,7-dihydropurine-6-thione]", 52.9),
    ("CN(C)C(=N)N=C(N)N [Metformin, 1,1-Dimethylbiguanide hydrochloride]", 39.4),
]
